method-notes: Viscosity, Haake Rheostress RS 600 rheometer, flat plate geometry
Assay type: physicochemical
condition-set: 1.5 mol/kg aqueous Mg-salt solution, 25° C.
The label Satisfied is reserved for Viscosity strictly under 5 mPas; Not satisfied covers values equal to or above it.

Prompt: Lab log: compare recorded Viscosity with 5 mPas; is it strictly lower for O=S(=O)([O-])[O-].[Mg+2] [compound 1, Mg-sulfate, reference compound] ?
Completion: Satisfied

* * *

Reported Viscosity by item:
method-notes: Viscosity, Haake Rheostress RS 600 rheometer, flat plate geometry
Type: physicochemical
condition-set: 1.5 mol/kg aqueous Mg-salt solution, 25° C.
// unit must come after the numeric part

The examples below pair each entry with its known result.
O=C([O-])CCC(=O)[O-].[Mg+2] [compound 10, Mg-succinate]
5.0 mPas
O=[N+]([O-])[O-].O=[N+]([O-])[O-].[Mg+2] [compound 2, Mg-nitrate, reference compound]
4.6 mPas
CC(=O)CCC(=O)[O-].CC(=O)CCC(=O)[O-].[Mg+2] [compound 14, Mg-levulinate]
10.3 mPas
C=C(CC(=O)[O-])C(=O)[O-].[Mg+2] [compound 8, Mg-itaconate]
5.5 mPas

Pending compound:
Entry O=C([O-])CCCCC(=O)[O-].[Mg+2] [compound 15, Mg-adipate] ; Viscosity = 8.8 mPas

Just for reference, patent US20250122397A1 is where these values come from.
